B1: DNA polymerase IV, Q97W02 (parent)
chain: MIVLFVDFDYFYAQVEEVLNPSLKGKPVVVCVFSGRFEDSGAVATANYEARKFGVKAGIPIVEAKKILPNAVYLPMRKEVYQQVSSRIMNLLREYSEKIEIASIDEAYLDISDKVRDYREAYNLGLEIKNKILEKEKITVTVGISKNKVFAKIAADMAKPNGIKVIDDEEVKRLIRELDIADVPGIGNITAEKLKKLGINKLVDTLSIEFDKLKGMIGEAKAKYLISLARDEYNEPIRTRVRKSIGRIVTMKRNSRNLEEIKPYLFRAIEESYYKLDKRIPKAIHVVAVTEDLDIVSRGRTFPHGISKETAYSESVKLLQKILEEDERKIRRIGVRFSKFIEAIGLDKFFDT

- Variants of: B1
- MEASUREMENT PARAMETERS: Saccharolobus solfataricus (strain ATCC 35092 / DSM 1617 / JCM 11322 / P2); pH 7.5; Thermal; CD; Na3PO4; NaCl MgCl2 50000 5000; structure 2RDI; whole UniProt chain shown
Items are presented alongside their recorded Tm.
Express your answer in °C, writing the number without its unit.

[[record]]
mutation_code = "E235A R240A"
observed = 90.3

[[record]]
mutation_code = "E100A K148A"
observed = 89.4


Here's the next entry for you.
Enquiry: Supply Tm value. Item: E100A K148A E235A R240A
Return: 90
